Reference source for all entries: patent US12281122B1

# System: T47D (PI3Kα-H1047R) cell line
# ASSAY INFO: HTRF phospho-AKT(S473) cell assay in T47D cells
# Format: cell-based, human
# EXPERIMENTAL CONTEXT: Homo sapiens; HTRF phospho-AKT(S473), T47D (PI3Kα-H1047R) cells, 2 hours compound incubation
# Protocol: Compounds in the present disclosure were tested in a cell based HTRF phospho-AKT(S473) (CisBio/Revvity) assay in human breast cancer cell lines as a measurement of PIK3CA activity through measuring AKT, a downstream effector. The activity of mutant PI3Kα-H1047R and PI3Kα-Wild Type was measured in the T47D (PI3Kα-H1047R) and SKBR3 (PI3Kα-Wild Type) cell lines, respectively. […] The following day, plates were centrifuged for 1 minute at 1000 rpm, and read on a PHERAstar plate reader. […]
pIC50: −log10 of the molar value.
In this section, each of the compounds is paired with its reported pIC50.

> print(dat)
                                   compound                         system   measurement
1  Cc1cc([C@@H](C)Nc2ccc(Cl)nc2C(=O)NS(C)(=O)=O)c2nc(N3CCC(c4nnc(C)n4C(F)F)CC3)n(C)c(=O)c2c1  T47D (PI3Kα-H1047R) cell line  6.30 to 6.60
2  CCn1ncc(F)c1C1CCN(c2nc3c([C@@H](C)Nc4ccc(Cl)nc4C(=O)NS(C)(=O)=O)cc(C)cc3c(=O)n2C)CC1  T47D (PI3Kα-H1047R) cell line        > 6.60
3  Cc1cc([C@@H](C)Nc2ccc(Cl)nc2C(=O)NS(C)(=O)=O)c2nc(N3C[C@@H]4[C@H](C3)[C@H]4c3n[nH]cc3C)n(C)c(=O)c2c1  T47D (PI3Kα-H1047R) cell line  6.30 to 6.60

GET pIC50 where system = T47D (PI3Kα-H1047R) cell line and item = Cc1cc([C@@H](C)Nc2ccc(Cl)nc2C(=O)NS(C)(=O)=O)c2nc(N3CCC[C@H](c4c[nH]nc4C)C3)n(C)c(=O)c2c1 (relative stereo)
6.30 to 6.60

GET pIC50 where system = T47D (PI3Kα-H1047R) cell line and item = Cc1cc([C@@H](C)Nc2ccc(Cl)nc2C(=O)NS(C)(=O)=O)c2nc(N3C[C@@H]4[C@H](C3)[C@H]4c3cc(C)on3)n(C)c(=O)c2c1
> 6.60

GET pIC50 where system = T47D (PI3Kα-H1047R) cell line and item = Cc1cc([C@@H](C)Nc2ccc(Cl)nc2C(=O)NS(C)(=O)=O)c2nc(N3CC[C@H](N(C)c4ncc(F)cn4)C3)n(C)c(=O)c2c1
6.30 to 6.60

GET pIC50 where system = T47D (PI3Kα-H1047R) cell line and item = COc1ncc(F)c(N2CCN(c3nc4c([C@@H](C)Nc5ccc(Cl)nc5C(=O)NS(C)(=O)=O)cc(C)cc4c(=O)n3C)CC2)n1
> 6.60

---

# Test system: T47D (PI3Kα-H1047R) cell line
# ASSAY INFO: HTRF phospho-AKT(S473) cell assay in T47D cells
# Type: cell-based, human
# EXPERIMENTAL CONTEXT: Homo sapiens; HTRF phospho-AKT(S473), T47D (PI3Kα-H1047R) cells, 2 hours compound incubation
MEASURED METRIC: IC50

Illustrative cases are given below, each with its answer.
> print(dat)
                                   molecule    measurement
1  COc1cc(O[C@H]2CCN(c3nc4c([C@@H](C)Nc5ccc(Cl)nc5C(=O)NS(C)(=O)=O)cc(C)cc4c(=O)n3C)C2)c(F)cn1  250 to 500 nM
2  Cc1cc([C@@H](C)Nc2ccc(Cl)nc2C(=O)NS(C)(=O)=O)c2nc(N3C[C@H]4C[C@@H]3CN4c3ccc(F)cn3)n(C)c(=O)c2c1  250 to 500 nM
3  Cc1cc([C@@H](C)Nc2ccc(Cl)nc2C(=O)NS(C)(=O)=O)c2nc(N3C[C@@H]4C(c5ccnc(C)c5F)[C@@H]4C3)n(C)c(=O)c2c1 (stereo partly drawn)  250 to 500 nM
4  Cc1cnc(N2C[C@@H]3C[C@H]2CN3c2nc3c([C@@H](C)Nc4ccc(Cl)nc4C(=O)NS(C)(=O)=O)cc(C)cc3c(=O)n2C)nc1  250 to 500 nM
5  Cc1cc([C@@H](C)Nc2ccc(Cl)nc2C(=O)NS(C)(=O)=O)c2nc(N3CCN(c4nccnc4C)CC3)n(C)c(=O)c2c1       < 250 nM

Input Cc1cc([C@@H](C)Nc2ccc(Cl)nc2C(=O)NS(C)(=O)=O)c2nc(N3C[C@@H]4[C@H](C3)[C@H]4n3cc(Cl)cn3)n(C)c(=O)c2c1 , output reported IC50.
250 to 500 nM

---

# System: SKBR3 (PI3Kα-Wild Type) cell line
# ASSAY INFO: HTRF phospho-AKT(S473) cell assay in SKBR3 cells
# Assay type: cell-based, human
# EXPERIMENTAL CONTEXT: Homo sapiens, SK-BR-3; HTRF phospho-AKT(S473), SKBR3 (PI3Kα-Wild Type) cells, 2 hours compound incubation, PDGF-BB stimulated
pIC50: −log10 of the molar value.
In this section, each of the compounds is paired with its reported pIC50.

Illustrative cases are given below, each with its answer.
> print(dat)
                                   compound   measurement
1  Cc1cc([C@@H](C)Nc2ccc(Cl)nc2C(=O)NS(C)(=O)=O)c2nc(N3CC[C@@H](c4ccccc4)C3)n(C)c(=O)c2c1        ≤ 5.30
2  Cc1cc([C@@H](C)Nc2ccc(Cl)nc2C(=O)NS(C)(=O)=O)c2nc(N3C[C@@H]4[C@H](C3)[C@H]4c3csc(C)n3)n(C)c(=O)c2c1  5.30 to 6.00
3  Cc1cc([C@@H](C)Nc2ccc(Cl)nc2C(=O)NS(C)(=O)=O)c2nc(N3CC[C@@H](c4ccnc(C)n4)C3)n(C)c(=O)c2c1 (relative stereo)  5.30 to 6.00
4  COc1cc([C@H]2[C@@H]3CN(c4nc5c([C@@H](C)Nc6ccc(Cl)nc6C(=O)NS(C)(=O)=O)cc(C)cc5c(=O)n4C)C[C@@H]32)nn1C        ≤ 5.30
5  Cc1cc([C@@H](C)Nc2ccc(Cl)nc2C(=O)NS(C)(=O)=O)c2nc(N3C[C@@H]4[C@H](C3)[C@H]4c3n[nH]cc3F)n(C)c(=O)c2c1  5.30 to 6.00

Input Cc1cc([C@@H](C)Nc2ccc(Cl)nc2C(=O)NS(C)(=O)=O)c2nc(N3Cc4cn(Cc5ccccc5)nc4C3)n(C)c(=O)c2c1 , output reported pIC50.
5.30 to 6.00

Input Cc1cc([C@@H](C)Nc2ccc(Cl)nc2C(=O)NS(C)(=O)=O)c2nc(N3CCC(n4cc(F)c(C)n4)CC3)n(C)c(=O)c2c1 , output reported pIC50.
5.30 to 6.00

Input Cc1cc([C@@H](C)Nc2ccc(Cl)nc2C(=O)NS(C)(=O)=O)c2nc(N3CCC(c4nc(C(F)(F)F)n(C)n4)CC3)n(C)c(=O)c2c1 , output reported pIC50.
≤ 5.30

Input Cc1cc([C@@H](C)Nc2ccc(Cl)nc2C(=O)NS(C)(=O)=O)c2nc(N3C[C@@H]4[C@H](C3)[C@H]4c3nnc(C)o3)n(C)c(=O)c2c1 , output reported pIC50.
5.30 to 6.00

Input Cc1cc([C@@H](C)Nc2ccc(Cl)nc2C(=O)NS(C)(=O)=O)c2nc([C@H]3[C@@H]4CN(c5ccc(C)nc5)C[C@@H]43)n(C)c(=O)c2c1 , output reported pIC50.
≤ 5.30

---

# Test system: SKBR3 (PI3Kα-Wild Type) cell line
# ASSAY INFO: HTRF phospho-AKT(S473) cell assay in SKBR3 cells
# Format: cell-based, human
# EXPERIMENTAL CONTEXT: Homo sapiens, SK-BR-3; HTRF phospho-AKT(S473), SKBR3 (PI3Kα-Wild Type) cells, 2 hours compound incubation, PDGF-BB stimulated
In this section, each of the compounds is paired with its reported IC50.

GET IC50 where system = SKBR3 (PI3Kα-Wild Type) cell line and item = COCCn1ncc2cc(-c3nc4c([C@@H](C)Nc5ccc(Cl)nc5C(=O)NS(C)(=O)=O)cc(C)cc4c(=O)n3C)ccc21 [Compound 791]
1 to 5 µM

GET IC50 where system = SKBR3 (PI3Kα-Wild Type) cell line and item = Cc1cc([C@@H](C)Nc2ccc(Cl)nc2C(=O)NS(C)(=O)=O)c2nc(-c3ccc4nn(C)nc4c3)n(C)c(=O)c2c1 [Compound 781]
1 to 5 µM

GET IC50 where system = SKBR3 (PI3Kα-Wild Type) cell line and item = Cc1cc([C@@H](C)Nc2ccc(Cl)nc2C(=O)NS(C)(=O)=O)c2nc(N3C[C@H]4CC(n5cc(C)cn5)C[C@@H]4C3)n(C)c(=O)c2c1 (single isomer, unassigned) [Compound 676]
≥ 5 µM

GET IC50 where system = SKBR3 (PI3Kα-Wild Type) cell line and item = COc1nn(C)cc1[C@H]1[C@@H]2CN(c3nc4c([C@@H](C)Nc5ccc(Cl)nc5C(=O)NS(C)(=O)=O)cc(C)cc4c(=O)n3C)C[C@@H]21 [Compound 440]
1 to 5 µM

GET IC50 where system = SKBR3 (PI3Kα-Wild Type) cell line and item = Cc1cc([C@@H](C)Nc2ccc(Cl)nc2C(=O)NS(C)(=O)=O)c2nc(N3C[C@@H]4C[C@H]3CN4c3ccc(C#N)cn3)n(C)c(=O)c2c1 [Compound 580]
≥ 5 µM

GET IC50 where system = SKBR3 (PI3Kα-Wild Type) cell line and item = Cc1cc([C@@H](C)Nc2ccc(Cl)nc2C(=O)NS(C)(=O)=O)c2nc(-c3cc(F)c4nn(C)cc4c3)n(C)c(=O)c2c1 [Compound 788]
1 to 5 µM
